Target: Virion infectivity factor (Human immunodeficiency virus type 1 group M subtype B (isolate BH10)) + Virion infectivity factor (Human immunodeficiency virus type 1 group M subtype B (isolate BRU/LAI)) + Virion infectivity factor (Human immunodeficiency virus type 1 group M subtype B (isolate PCV12)) + Virion infectivity factor (Human immunodeficiency virus type 1 group M subtype B (isolate HXB2)) (UniProt P69720+P69721+P69722+P69723)
Assay: dose-dependent disruption of HIV Vif self-association – imaging, HEK293T, cherry-picks, dose response (AID 652241);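 also: imaged cell signal that rises when Vif self-association is disrupted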
Details: HEK293T Vif multimerization imaging, 24 h; at 19.5 µM (top of the series)
Records with an inconclusive call do not appear. Activity calls are given as the source filed them.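 The calls were made as follows: active = fitted curve reaches activity 50 in the expected rising direction at or below the top valid tested dose; inconclusive = no clear call, values can overlap the other calls; inactive = activity in the wrong direction, and the rest.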
Measured Metric: activity, higher = inhibition

COc1cc(CNCc2ccccc2)c(Br)cc1OC1CCCC1 = inactive
CCC1(CC)NC(=O)N(CC(=O)Nc2ccc(OCc3ccccc3)cc2)C1=O = inactive
COc1ccc([C@H]2CC(=O)C=C(c3cc4ccccc4s3)C2)cc1 = inactive
N#CC(C(=O)NCCc1ccccc1)c1nc2ccccc2nc1N1CCOCC1 (stereo unspecified) = inactive
CCCCCCn1c(N(CC)CC)nc2c1c(=O)[nH]c(=O)n2C = inactive
COc1ccc(CN(CC(=O)NC2CCCC2)C(=O)CN2C(=O)COc3ccccc32)cc1 = inactive

Turning to the following compound.
Report activity, higher = inhibition for O=C(Nc1nn[nH]n1)c1cc(-c2ccc(Cl)c(Cl)c2Cl)nc2ccccc12 please.
inactive

---

Biological target: Virion infectivity factor (Human immunodeficiency virus type 1 group M subtype B (isolate BH10)) + Virion infectivity factor (Human immunodeficiency virus type 1 group M subtype B (isolate BRU/LAI)) + Virion infectivity factor (Human immunodeficiency virus type 1 group M subtype B (isolate PCV12)) + Virion infectivity factor (Human immunodeficiency virus type 1 group M subtype B (isolate HXB2)) (UniProt P69720+P69721+P69722+P69723)
Test: dose-dependent disruption of HIV Vif self-association – imaging, HEK293T, cherry-picks, dose response (AID 652241);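 also: imaged cell signal that rises when Vif self-association is disrupted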
Settings: HEK293T Vif multimerization imaging, 24 h
Inconclusive results are not listed. Active and inactive are the calls of the source.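 Rule for the calls: active = fitted curve reaches activity 50 in the expected rising direction at or below the top valid tested dose; inconclusive = no clear call, values can overlap the other calls; inactive = activity in the wrong direction, and the rest.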
Outcome (select one): active, inactive

What did the test return for COc1ccc(CC(=O)Nc2ccc(-c3noc(-c4cc(OC)c(OC)c(OC)c4)n3)cc2)cc1 ?
active

What did the test return for Cc1cc(C)cc(NC(=O)CCc2nc3sc4c(c3c(=O)[nH]2)CCCC4)c1 ?
active

What did the test return for COc1ccccc1C1C2=C(COC2=O)Nc2cc3c(cc21)OCO3 (stereo not given) ?
active

What did the test return for O=C(Nc1ccc(-c2nc3ccc(NC(=O)c4cccs4)cc3[nH]2)cc1)c1cccs1 ?
active

What did the test return for COc1cc(NC(=O)c2ccc(-c3csc(C)n3)cc2)c(OC)cc1Cl ?
active

What did the test return for CC(=O)Nc1ccc(S(=O)(=O)N2c3ccccc3C(C)=CC2(C)C)cc1 ?
inactive

What did the test return for Cc1nnc2ccc(-c3ccc(NS(=O)(=O)c4ccc(Cl)s4)cc3)nn12 ?
active

What did the test return for COC(=O)c1ccc(Oc2coc3cc(OCc4cnn(-c5ccccc5)c4)ccc3c2=O)cc1 ?
active

What did the test return for COc1ccc(-c2ccc3c(N)c(C(=O)c4ccc(OC)c(OC)c4)sc3n2)cc1 ?
inactive

What did the test return for COc1cc2ccccc2cc1C(=O)Nc1ccc(Cl)cn1 ?
active

What did the test return for CCOc1ccc(Nc2nc3c(C)cccc3cc2C#N)cc1 ?
active

What did the test return for COc1cc(-c2cnc3c(NC=O)cc(-c4ccccc4)cn23)cc(OC)c1OC ?
active

What did the test return for Cc1nnc2ccc(-c3cccc(NS(=O)(=O)c4ccccc4Cl)c3)nn12 ?
active

What did the test return for COc1ccc(S(=O)(=O)Nc2cc3c(C(C)=O)c(C)oc3c3ccccc23)cc1 ?
active

What did the test return for COc1cccc(-c2cc(NC=O)c3ncc(-c4cc(OC)c(OC)c(OC)c4)n3c2)c1 ?
active

What did the test return for Cc1cccc(Nc2nc(-c3ccc(O)c(O)c3)cs2)n1 ?
inactive

What did the test return for COc1ccc(NC(=O)C2(C)Cc3c(-c4cccc(NC(C)=O)c4)ccnc3O2)cn1 (stereo not given) ?
active

What did the test return for c1ccc(-c2cn3nc(-c4ccccc4)c(-c4ccccc4)nc3n2)cc1 ?
active

What did the test return for N#Cc1c(C(F)(F)F)cc(-c2ccco2)nc1SCc1ccncc1 ?
active

What did the test return for COc1ccc2nc(N3C(=O)C(O)=C(C(=O)c4ccco4)C3c3ccccc3OC)sc2c1 (stereo not given) ?
inactive

What did the test return for FC(F)(F)c1nnc2c3ccccc3c(Cl)nn12 ?
active

What did the test return for CCN(CC)C1Oc2cc3c(cc2C(c2cc(OC)c(OC)c(OC)c2)C1C)OCO3 (stereo not given) ?
active

What did the test return for COc1cccc(N2CCN(C(=O)c3ccc(CS(=O)c4ccc(C)cc4)o3)CC2)c1 (stereo not given) ?
active

What did the test return for Cc1ccc(NC(=O)/C=C/c2ccco2)nc1 ?
active

What did the test return for Cc1cc2cc(C#N)c(SCC(=O)Nc3nonc3C)nc2cc1C ?
active

What did the test return for COc1ccc(S(=O)(=O)N2c3cc(Cl)ccc3Oc3nc4ccccc4nc32)cc1 ?
active

What did the test return for C=CCn1c(O)c(C2=c3ccccc3=NC2=O)s/c1=N/c1nccs1 ?
inactive

What did the test return for Cc1cnc(NC(=O)CN2CCN(c3ccccn3)CC2)s1 ?
active

What did the test return for CCCSc1ccc2nc(NC(=O)OC)[nH]c2c1 ?
active

What did the test return for Cc1nc(-c2ccc(O)c(O)c2)cs1 ?
inactive
